# Test system: K562
# test-protocol: Antiproliferative activity against human K562 cells after 72 hrs
# Type: functional, cell-based
# applied-conditions: K562, 72 h
pIC50: −log10 of the molar value.
measure: pIC50

The reported value for CC[C@]1(O)C[C@@H]2CN(CCc3c([nH]c4ccccc34)[C@@](C(=O)OC)(c3cc4c(cc3OC)N(C)[C@H]3[C@@](O)(C(=O)OC)[C@H](OC(C)=O)[C@]5(CC)C=CCN6CC[C@]43[C@@H]65)C2)C1 in terms of pIC50 is 8.57

1 = CCC1=C[C@@H]2CN(C1)C[C@H](CN1CCC[C@H]1C(=O)N[C@H](C(=O)OC)[C@@H](C)CC)Cc1c([nH]c3ccccc13)[C@@](C(=O)OC)(c1cc3c(cc1OC)N(C)[C@H]1[C@@](O)(C(=O)OC)[C@H](OC(C)=O)[C@]4(CC)C=CCN5CC[C@]31[C@@H]54)C2
2 = CCC1=C[C@@H]2CN(C1)Cc1c([nH]c3ccccc13)[C@@](C(=O)OC)(c1cc3c(cc1OC)N(C)[C@H]1[C@@](O)(C(=O)OC)[C@H](OC(C)=O)[C@]4(CC)C=CCN5CC[C@]31[C@@H]54)C2
3 = CCC1=C[C@@H]2CN(C1)C[C@H](CN1CCC[C@H]1C(=O)OC)Cc1c([nH]c3ccccc13)[C@@](C(=O)OC)(c1cc3c(cc1OC)N(C)[C@H]1[C@@](O)(C(=O)OC)[C@H](OC(C)=O)[C@]4(CC)C=CCN5CC[C@]31[C@@H]54)C2
Hey, can you sort those molecules up there by pIC50, smallest first? Write out the labels following the order that was asked for.
1, 3, 2
(1: 6.60, 3: 6.92, 2: 8.46)
